- MEASURED_TARGET: T1, human DLL3 (human, UniProt Q9NYJ7 27-492, limits assumed)
- T1 construct: also called hDLL3; DLL3 protein
- T1 sequence: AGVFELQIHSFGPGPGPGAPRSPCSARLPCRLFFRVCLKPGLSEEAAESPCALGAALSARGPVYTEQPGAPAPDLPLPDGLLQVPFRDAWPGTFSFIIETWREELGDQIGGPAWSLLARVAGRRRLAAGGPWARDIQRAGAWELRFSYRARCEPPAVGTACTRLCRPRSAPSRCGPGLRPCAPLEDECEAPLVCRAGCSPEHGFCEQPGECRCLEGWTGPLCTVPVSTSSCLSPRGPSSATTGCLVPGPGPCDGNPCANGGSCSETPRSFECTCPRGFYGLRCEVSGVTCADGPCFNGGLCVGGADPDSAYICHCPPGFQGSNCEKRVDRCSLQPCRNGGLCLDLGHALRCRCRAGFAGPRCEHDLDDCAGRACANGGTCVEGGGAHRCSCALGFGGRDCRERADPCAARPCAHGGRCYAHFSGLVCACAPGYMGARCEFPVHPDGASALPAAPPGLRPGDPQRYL
- EXPERIMENTAL_PROTOCOL: screen on immobilized hDLL3 or h293-hDLL3 cells
MEASURED_METRIC: binding result

INPUT: Which binding result reading was recorded for the binder SC16.55 (antibody, V domains shown, murine mAb) VH: EVQLVESGGGLVQPKGSLKLSCAVSAFTFTTYAMNWVRQAPGKGLEWVARIRNKSNNYATYYADSVKDRFTISRDDSQSMLYLQMNNLKIEDTAMYYCVFYYDYVYWGQGTLVTVSA VL: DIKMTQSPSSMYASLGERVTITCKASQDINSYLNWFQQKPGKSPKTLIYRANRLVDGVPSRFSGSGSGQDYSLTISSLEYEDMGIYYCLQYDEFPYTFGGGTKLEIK ?
OUTPUT: binds

INPUT: Which binding result reading was recorded for the binder SC16.25 (antibody, V domains shown, murine mAb) VH: QVTLKESGPGILQPSQTLSLTCSFSGFSLSTSGMGVGWIRQPSGEGLEWLTDIWWDDNKYYNPSLKSRLTISKDTSSNQVFLNITSVDTADTATYYCARRVNYYYDPYYAMDYWGQGTSVTVSS VL: QIVLTQSPAIMSASPGEKVTMTCSASSSVSYMHWYQQKSGTSPKRWIYDSSKLASGVPARFSGSGSGTSYSLTISSMEAEDAATYYCQQWSSNPLTFGAGTKLELK ?
OUTPUT: binds

INPUT: Which binding result reading was recorded for the binder SC16.67 (antibody, V domains shown, murine mAb) VH: EVQLVETGGGLVQPKGSLKLSCAVSAFTFTTYAMNWVRQAPGKGLEWVARIRNKSNNYATYYADSVKDRFTISRDDSQSMLYLQMNNLKIEDTAMYYCVFYYDYVYWGQGTLVTVSA VL: QAVVTQESALTTSPGETVTLTCRSSTGAVTTSNYANWIQEKPDHLFTGLIGGTNNRAPGVPARFSGSLIGDKAALTITGAQTEDEAIYFCGLWYSNHLVFGGGTKLTVL ?
OUTPUT: binds
